Target: Adenosine receptor A1 (Rattus norvegicus) (UniProt P25099)
Sequence (P25099 whole entry): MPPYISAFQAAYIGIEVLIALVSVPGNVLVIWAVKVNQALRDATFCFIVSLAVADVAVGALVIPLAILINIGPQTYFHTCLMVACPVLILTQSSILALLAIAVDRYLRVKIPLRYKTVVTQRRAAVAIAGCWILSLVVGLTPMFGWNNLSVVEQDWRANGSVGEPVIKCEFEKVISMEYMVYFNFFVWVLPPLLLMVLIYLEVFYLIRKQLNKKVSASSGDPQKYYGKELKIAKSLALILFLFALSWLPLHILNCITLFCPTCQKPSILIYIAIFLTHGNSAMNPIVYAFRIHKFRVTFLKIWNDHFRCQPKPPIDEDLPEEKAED
Assay: Antagonistic activity on N6-([3H]-phenylisopropyl)adenosine binding to rat brain membrane (Adenosine A1 receptor)
Format: tissue-based
Dear colleague, classification is by Kb, with ranges listed here: bottom end: < 6 nM; midrange: ≥ 6 nM and < 40 nM; top end: ≥ 40 nM

Look over these answered cases.
1) CCCn1c(=O)c2[nH]c(-c3ccc(OC)cc3O)nc2n(CCC)c1=O
bottom end
2) CCCn1c(=O)c2nc(-c3cnccn3)[nH]c2n(CCC)c1=O
top end
3) CCCn1c(=O)c2nc(-c3ccc(C(=O)O)cc3)[nH]c2n(CCC)c1=O
top end
4) CCCn1c(=O)c2nc(-c3ccc(OCC(=O)OCC)cc3O)[nH]c2n(CCC)c1=O
midrange
5) CCCn1c(=O)c2nc(-c3ccc(O)cc3O)[nH]c2n(CCC)c1=O
bottom end

## Input Input `CCCn1c(=O)c2nc(-c3ccc(C(=O)NCC(=O)OC)cc3)[nH]c2n(CCC)c1=O` ; output its category
## Output midrange

## Input Input `CCCn1c(=O)c2nc(-c3ccc(OCC(N)=O)cc3O)[nH]c2n(CCC)c1=O` ; output its category
## Output midrange

## Input Input `CCCn1c(=O)c2nc(C3CCNCC3)[nH]c2n(CCC)c1=O` ; output its category
## Output top end

## Input Input `CCCn1c(=O)c2nc(-c3ccc(O)cc3)[nH]c2n(CCC)c1=O` ; output its category
## Output bottom end
